Measured pKd values are reported for all entries that follow.
- Target: T1, human SIRPαV2 extracellular domain + His-tag (CAA71403.1) (human, UniProt P78324 31-373)
- T1 construct: also called hSIRPαV2; HuSIRPαV2
- T1 sequence (P78324 other isoform, or with tags, fused parts or gaps): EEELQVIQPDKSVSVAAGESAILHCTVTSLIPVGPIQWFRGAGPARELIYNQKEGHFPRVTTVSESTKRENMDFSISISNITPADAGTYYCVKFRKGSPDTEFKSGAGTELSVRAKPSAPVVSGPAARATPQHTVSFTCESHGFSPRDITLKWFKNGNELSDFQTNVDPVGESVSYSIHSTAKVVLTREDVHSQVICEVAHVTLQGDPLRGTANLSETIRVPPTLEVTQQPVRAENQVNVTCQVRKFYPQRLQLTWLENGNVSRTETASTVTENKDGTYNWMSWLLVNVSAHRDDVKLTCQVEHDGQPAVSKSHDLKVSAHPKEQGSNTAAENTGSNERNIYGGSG
- Assay Explanation: SPR, Ab captured, ECD-His analyte
Friendly reminder that pKd comes from taking -log10 of the concentration in mol/L.

Antibody E22 (antibody, human IgG1, kappa, L234A L235A, V domains shown) VH: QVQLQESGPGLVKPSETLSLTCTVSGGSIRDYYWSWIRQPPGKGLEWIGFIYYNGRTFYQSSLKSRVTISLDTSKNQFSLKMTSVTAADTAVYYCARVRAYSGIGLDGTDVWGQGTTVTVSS VL: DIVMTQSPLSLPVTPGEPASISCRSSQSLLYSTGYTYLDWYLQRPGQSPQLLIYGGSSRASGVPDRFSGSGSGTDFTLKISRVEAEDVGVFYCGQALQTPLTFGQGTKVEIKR: 8.83
Antibody E17 (antibody, human IgG1, kappa, L234A L235A, V domains shown) VH: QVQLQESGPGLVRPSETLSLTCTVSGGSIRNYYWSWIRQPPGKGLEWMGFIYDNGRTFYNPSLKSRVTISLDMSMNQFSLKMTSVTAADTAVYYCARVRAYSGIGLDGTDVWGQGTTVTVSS VL: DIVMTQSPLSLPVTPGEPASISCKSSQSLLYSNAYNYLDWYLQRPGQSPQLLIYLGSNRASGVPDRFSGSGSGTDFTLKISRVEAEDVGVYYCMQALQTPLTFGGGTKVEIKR: 9.10
Antibody E9 (antibody, human IgG1, kappa, L234A L235A, V domains shown) VH: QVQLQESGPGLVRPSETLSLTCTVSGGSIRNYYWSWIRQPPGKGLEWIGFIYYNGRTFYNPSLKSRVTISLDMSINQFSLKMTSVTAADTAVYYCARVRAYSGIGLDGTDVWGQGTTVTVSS VL: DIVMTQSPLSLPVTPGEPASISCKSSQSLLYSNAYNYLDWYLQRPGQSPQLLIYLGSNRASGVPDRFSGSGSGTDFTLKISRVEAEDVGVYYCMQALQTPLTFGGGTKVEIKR: 9.03
Antibody E12 (antibody, human IgG1, kappa, L234A L235A, V domains shown) VH: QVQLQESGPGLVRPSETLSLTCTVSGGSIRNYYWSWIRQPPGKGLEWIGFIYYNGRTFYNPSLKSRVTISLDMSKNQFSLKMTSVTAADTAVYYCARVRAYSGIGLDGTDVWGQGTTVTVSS VL: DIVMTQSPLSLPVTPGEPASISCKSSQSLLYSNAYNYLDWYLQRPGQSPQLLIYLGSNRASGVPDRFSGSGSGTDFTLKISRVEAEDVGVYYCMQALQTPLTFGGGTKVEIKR: 8.90

// next item, pKd requested
Query: Using the record for Antibody E6 (antibody, human IgG1, kappa, L234A L235A, V domains shown) VH: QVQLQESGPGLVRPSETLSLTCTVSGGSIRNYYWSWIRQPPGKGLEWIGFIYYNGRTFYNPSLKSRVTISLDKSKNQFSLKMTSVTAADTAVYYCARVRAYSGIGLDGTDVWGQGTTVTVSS VL: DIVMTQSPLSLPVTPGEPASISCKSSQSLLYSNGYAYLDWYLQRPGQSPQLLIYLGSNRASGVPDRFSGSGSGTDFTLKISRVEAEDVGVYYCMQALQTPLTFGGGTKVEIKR , state its measured pKd.
Result: 9.06
